- Assayed target: T1, RSV F subtype B, furin-cleaved ectodomain stabilized in the prefusion conformation (DS-Cav1) (Respiratory syncytial virus subtype B)
- T1 construct: extracellular domain; Trimeric soluble antigen; also called Prefusion subtype B
- Assay method text: BLI, IgG on AHQ sensor, 100 nM antigen
For each record, check the reported Kd: if it is below 0.3 nM write Satisfied, else write Not satisfied.

Use the examples below as a reference point.
• ADI-18937 (antibody, V domains shown, full-length IgG from yeast; also called Antibody Number 290; Ab # 290) VH: QVQLQESGPGLVKPSQTLSLTCTVSGPSISAGDYNWNWIRQAPGKGLEWVGYIDYRGLTHYNPSLKGRLSILMDRSANQFSLELNSVTAADTAVYYCARDVGVYSGYDVFHYYGMDVWGQGTTVTVSS VL: ETTLTQSPVTLSLSPGERATLSCRASQYVRNNYLAWYQHKPGQAPRLLIYSASSRVTGTPDRFSGSGSGTDFTLTISRLEPEDFAVYYCQQYGGSPPVTFGPGTKVDIK = Satisfied
• ADI-18892 (antibody, V domains shown, full-length IgG from yeast) VH: QVQLVQSGAEVKEPGASVRVSCKASGYTFTSYGISWVRQAPGQGLEWMGWISAYNGNTNYAQKFQGRVTVTTDTSTSAAYMELRSLRSDDTAIYYCARDSFSLTGAGFPDYWGQGTLVTVSS VL: EIVMTQSPLSLPVTLGQPASISCRSSQSLVYSDGNTYLNWFQQRPGQSPRRLIYKVSNRDSGVPDRFSGSGSDTDFTLKISRVEAEDVGVYYCMQATQWPRTFGQGTKVEIK = Satisfied
• ADI-18898 (antibody, V domains shown, full-length IgG from yeast) VH: QVQLVQSGTEVKKPGASVKVSCKAAGYTFSNYGVSWVRQAPGQGLEWMGWISAYNGNTKFAQKVQGRLTMTTDTSTSTAYMELRNLRSDDTAVYYCARESGATAAAMFDYWGQGTLVTVSS VL: EIVLTQSPLSLPVTLGQPASISCRSSQSLEYSDGNIYLSWFQQRPGQSPRRLIYKVSHRDSGVPDRFSGSGSGTDFTLKIARVEAEDVAVYYCMQAIHWPRTFGQGTKVEIK = Not satisfied

Please let me know if ADI-18887 (antibody, V domains shown, full-length IgG from yeast; also called Antibody Number 242; Ab # 242) VH: QVQLVQSGAEVKRPGSSVKVSCKASGGTFSSYALSWVRQAPGQGLEWIGGIIPMHRVTNYAQKFRGRVTISADTSTSTAYLEVNSLRVEDTAMYYCARVFFGTCGGASCFPSDLWGQGTLVTVSS VL: EIVLTQSPSFVSASVGDGVTITCRASQAISSYLAWYQQKPGQAPKLLIYAASTLQGGVPSRFSGSGSGTHFTLTISSLQPEDFATYYCQQLHSDFQTFGPGTKVEIK shows Kd below 0.3 nM.
Not satisfied
